Study target: T1, 4H1985-bN
T1 chain: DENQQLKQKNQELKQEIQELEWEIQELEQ
Assay: two-hybrid library CCNG1;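 further: natural log of median RNA to DNA barcode read ratio; higher means stronger binding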
Measured quantity: interaction score

Use these answered entries as a reference point.
DENQQLKQKIQELKQKIQELKWENQELEQ [4H1899-bN] ... -0.785
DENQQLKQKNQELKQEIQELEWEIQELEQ [4H1985-bN] ... -2.05
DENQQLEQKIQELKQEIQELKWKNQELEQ [4H1359-bN] ... -0.294

[A] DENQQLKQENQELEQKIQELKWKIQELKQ [4H1710-bN]
[B] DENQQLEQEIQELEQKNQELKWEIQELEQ [4H1081-bN]
Endpoint returns the identifier whose interaction score is numerically larger, either A or B . // return label of chosen record
A
(A: 1.36, B: -1.65)

[I] DENQQLEQKIQELEQKNQELKWEIQELKQ [4H1338-bN]
[II] DENQQLKQEIQELEQEIQELEWKNQELKQ [4H1544-bN]
In terms of reported interaction score, does I or II have the smaller number? Refer to your chosen item by its label in the answer.
I
(I: -0.88, II: -0.277)

[I] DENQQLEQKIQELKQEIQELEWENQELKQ [4H1348-bN]
[II] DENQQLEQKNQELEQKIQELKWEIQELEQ [4H1449-bN]
Lab note: record which item had the higher interaction score, I or II . Write down the label of the entry you select.
I
(I: -0.781, II: -1.29)

[I] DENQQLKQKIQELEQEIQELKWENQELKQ [4H1804-bN]
[II] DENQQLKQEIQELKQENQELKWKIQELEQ [4H1629-bN]
[III] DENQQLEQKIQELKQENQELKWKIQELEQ [4H1373-bN]
Put the entries in order of interaction score, starting with the largest number. Record the ranking as a list of labels in the requested order.
I, II, III
(I: 0.201, II: -0.575, III: -1.63)

These data points were gathered from paper PMC10397247.
